Provide the reported solubility at 18 h of each item.
# Assay Comment: High throughput thermodynamic solubility procedure
# Type: physicochemical
# Protocol Conditions: thermodynamic from solid; deionized water, 18 hours incubation, theoretical maximum 10 mM; read-out: Aqueous Solubility DI H2O

Please review the entries below; each comes with its answer.
Cc1cc(Nc2ncnc(N)c2C)c(=O)n2c1C(=O)N[C@@]21CCCN(C)C1 (stereo in doubt) [Compound 1Fb] ... > 1850 µg/mL
Cc1cc(Nc2ncnc(N)c2C)c(=O)n2c1C(=O)NC21CNCCC1(C)C (centres unmarked) [Compound 3T] ... 10000 µM
Cc1cc(Nc2ncnc(N)c2Cl)c(=O)n2c1C(=O)NC21CCCN(C)C1 (centres unmarked) [Compound 3D] ... 3300 µM
Cc1cc(Nc2ncnc(N)c2Cl)c(=O)n2c1C(=O)NC21CCCN(CCC(F)(F)F)C1 (centres unmarked) [Compound 3F] ... 240 µM
Cc1cc(Nc2ncnc(N)c2C)c(=O)n2c1C(=O)N[C@]21CCCN(C)C1 (stereo in doubt) [Compound 1Fa] ... > 1850 µg/mL

List reported solubility at 18 h for each of these compounds:
1. Cc1cc(Nc2ncnc(N)c2Cl)c(=O)n2c1C(=O)NC21CCN(CCF)CC1 [Compound 3CC]
2. Cc1cc(Nc2ncnc(N)c2Cl)c(=O)n2c1C(=O)N[C@]21CCCNC1 [Compound 3K]
3. Cc1cc(Nc2ncnc(N)c2C#N)c(=O)n2c1C(=O)N[C@]21CCCN(C)C1 (single isomer, unassigned) [Compound 2Fa]

**Result**
770 µM
1530 µg/mL
1840 µg/mL

====

# Assay Comment: High throughput thermodynamic solubility procedure
# Type: physicochemical
# Protocol Conditions: thermodynamic from solid; deionized water, 18 hours incubation, theoretical maximum 10 mM
Measurement Type: solubility in DI water at 18 h (µM)
Answers are plain numbers, in µM.

Form: compound = Cc1cc(Nc2ncnc(N)c2Cl)c(=O)n2c1C(=O)NC21CCCCC1.Cl [Compound 4A, reference compound] ; solubility in DI water at 18 h = 300

====

# Assay Comment: High throughput thermodynamic solubility procedure
# Format: physicochemical
# Protocol Conditions: Fasted-State Simulated Intestinal Fluid (FaSSIF), pH 6.5, fassif, thermodynamic from solid; Fasted-State Simulated Intestinal Fluid, 18 hours incubation, theoretical maximum 10 mM; read-out: Aqueous Solubility FaSSIF (pH 6.5)
Measurement Type: solubility at 18 h (µM)
Answers are plain numbers, in µM.

Cc1cc(Nc2ncnc(N)c2Cl)c(=O)n2c1C(=O)NC21CCN(CCF)CC1 [Compound 3CC] ... 40
Cc1cc(Nc2ncnc(N)c2C)c(=O)n2c1C(=O)NC21CCCN(C)C1 (racemic) [rac-1F] ... 240
Cc1cc(Nc2ncnc(N)c2Cl)c(=O)n2c1C(=O)NC21CCCN(C)C1 (stereo not shown) [Compound 3D] ... 110
Cc1cc(Nc2ncnc(N)c2Cl)c(=O)n2c1C(=O)NC21CCCNC1 (stereo not shown) [Compound 3C] ... 256
Cc1cc(Nc2ncnc(N)c2Cl)c(=O)n2c1C(=O)NC21CCCCC1.Cl [Compound 4A, reference compound] ... 45

List reported solubility at 18 h for each of these compounds:
1. Cc1cc(Nc2ncnc(N)c2C)c(=O)n2c1C(=O)NC21CNCCC1(C)C (stereo not shown) [Compound 3T]
2. Cc1cc(Nc2ncnc(N)c2C)c(=O)n2c1C(=O)NC21CCN(CC2(F)CC2)CC1 [Compound 3HH]
3. Cc1cc(Nc2ncnc(N)c2Cl)c(=O)n2c1C(=O)NC21CCN(C)CC1(C)C (stereo not shown) [Compound 3DD]
4. Cc1cc(Nc2ncnc(N)c2C)c(=O)n2c1C(=O)NC21CCN(CCC(F)(F)F)CC1 [Compound 3AA]

**Result**
500
18
130
30

Origin of measurements: patent US11878015B2
